system: UGT1A4 (expressed metabolising enzyme); assay: TeamChip metabolism-induced toxicity assay, UGT1A4; assay type: cell-based; conditions: human, IC50, UGT1A4, Ad-UGT1A4 15 MOI; compound 48 h; n = 4
Readout: IC50 at 48 h (µM)
Report the value in µM with no unit label.

Ask | Any idea what IC50 at 48 h was measured for CN1CCN(CCCN2c3ccccc3Sc3ccc(C(F)(F)F)cc32)CC1 ?
Reply | 100

Ask | Any idea what IC50 at 48 h was measured for CC(C)C(=O)Nc1ccc([N+](=O)[O-])c(C(F)(F)F)c1 [Flutamide, flutamide] ?
Reply | 38

Ask | Any idea what IC50 at 48 h was measured for Nc1c(CC(=O)O)cccc1C(=O)c1ccc(Br)cc1 ?
Reply | 210

Ask | Any idea what IC50 at 48 h was measured for CC(=O)Nc1ccc(O)cc1 ?
Reply | 2100

Ask | Any idea what IC50 at 48 h was measured for Cc1c(C)c2c(c(C)c1O)CCC(C)(COc1ccc(CC3SC(=O)NC3=O)cc1)O2 (centres unmarked) ?
Reply | 150
